- tested.target: GSG2 (human) (UniProt Q8TF76)
- Sequence (Q8TF76 whole entry, looked up): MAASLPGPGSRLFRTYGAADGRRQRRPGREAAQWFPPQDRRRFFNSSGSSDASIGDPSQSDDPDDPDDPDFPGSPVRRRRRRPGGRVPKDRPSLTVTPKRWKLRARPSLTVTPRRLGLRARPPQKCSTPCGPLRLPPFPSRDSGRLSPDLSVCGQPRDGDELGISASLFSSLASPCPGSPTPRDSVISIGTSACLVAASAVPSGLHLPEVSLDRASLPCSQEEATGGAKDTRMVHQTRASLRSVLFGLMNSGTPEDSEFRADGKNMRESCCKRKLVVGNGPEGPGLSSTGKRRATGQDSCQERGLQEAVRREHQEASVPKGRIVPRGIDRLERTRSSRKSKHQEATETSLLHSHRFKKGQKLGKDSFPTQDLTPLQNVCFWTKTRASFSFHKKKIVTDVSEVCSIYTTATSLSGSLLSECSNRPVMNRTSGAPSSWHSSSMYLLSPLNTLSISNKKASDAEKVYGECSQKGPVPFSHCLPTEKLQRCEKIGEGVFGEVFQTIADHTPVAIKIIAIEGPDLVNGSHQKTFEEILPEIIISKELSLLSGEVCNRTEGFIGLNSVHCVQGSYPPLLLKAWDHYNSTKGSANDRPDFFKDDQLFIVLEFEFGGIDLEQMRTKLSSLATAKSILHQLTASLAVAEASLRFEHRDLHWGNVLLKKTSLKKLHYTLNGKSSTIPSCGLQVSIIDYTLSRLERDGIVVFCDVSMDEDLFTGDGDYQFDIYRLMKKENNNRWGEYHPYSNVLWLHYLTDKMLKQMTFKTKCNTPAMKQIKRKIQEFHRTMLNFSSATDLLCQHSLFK
- experimental.details: radiometric filter-binding kinase assay, Kinase HotSpot
- measurement.conditions: compound 0.5 µM; ATP 10 µM
residual activity values for the compounds below.
Kindly provide the numeric value in % only, without the unit symbol.

Consider the following illustrative entries.
sample.smiles | unit.text | recorded.measurement
COc1cc2c(cc1OC)-c1[nH]nc(Nc3cccc(F)c3)c1C2 | % | 84.8
Nc1ncnc2c1cnn2-c1ccccc1 | % | 94.8
CCCCc1c(-c2ccc(O)cc2)[nH]c2nccnc12 | % | 65.3
O=C(c1ccccc1)c1ccc(N2CCOCC2)cc1O | % | 98.5
N/C(=N\N=C/c1ccc(-c2cccc([N+](=O)[O-])c2)o1)N[N+](=O)[O-] | % | 89.1
N#Cc1c(NC(=O)c2cccc3ccccc23)sc2c1CCCC2 | % | 99
O=c1cc(N2CCOCC2)oc2c(-c3ccccc3)cccc12 | % | 93.4
COc1cc2ncnc(Nc3ccc(O)c(Br)c3)c2cc1OC | % | 84.8

q: // query residual activity value for entry `COc1cccc(-c2cc(=O)c3ccccc3o2)c1N`
a: 95.7

q: Can you check `O=S(=O)(NCCNC/C=C/c1ccc(Br)cc1)c1cccc2cnccc12` next?
a: 55.1

q: Next compound up: `O=C1NC(=O)c2cc(Nc3ccc(F)cc3)c(Nc3ccc(F)cc3)cc21`
a: 95.1

q: Proceed to `Cn1cc(/C=C2\C(=O)Nc3ccc(S(N)(=O)=O)cc32)c2ccccc21`
a: 93.1

q: And the next one, `O=C1NC(=O)c2c1c1c3ccccc3[nH]c1c1[nH]c3cc(Br)ccc3c21` ?
a: 72.9

q: Here is the next compound: `COc1cc2c(Nc3ccc(Br)cc3F)ncnc2cc1OCC1CCN(C)CC1`
a: 92.6

q: Same question, `N#C/C(=C1/Nc2ccccc2S1)c1ccnc(NCCc2cccnc2)n1` this time
a: 31
